- System: MCF7
- Test details: Antiproliferative activity against human MCF7 cells measured after 48 hrs by SRB assay
- Format: functional, cell-based
- Run conditions: Homo sapiens, MCF7, 48 h
Task for the reader: assign each of the following compounds its reported IC50.
Answer format: value, then unit.

compound COc1ccc(N(CCN2CCSCC2)S(=O)(=O)c2ccc3c(c2)c2ccccc2n3C)c(OC)n1 , IC50 observed: 4.61 µM

compound COc1ccc(NS(=O)(=O)c2ccc3c(c2)c2ccc(O)cc2n3C)c(OC)n1 , IC50 observed: 0.014 µM

compound COc1ccc(N(CCCN2CCC3(CCN(C)CC3)C2)S(=O)(=O)c2ccc3c(c2)c2ccccc2n3C)c(OC)n1 , IC50 observed: 21.3 µM

compound COc1ccc(/C=C\c2cc(OC)c(OC)c(OC)c2)cc1OP(=O)(O)O [FOSBRETABULIN DISODIUM] , IC50 observed: 0.011 µM

compound COc1ccc(/C=C\c2cc(OC)c(OC)c(OC)c2)cc1O , IC50 observed: 0.003 µM

compound COc1ccc(N(CCCN2CCC(N3CCCC3)CC2)S(=O)(=O)c2ccc3c(c2)c2ccccc2n3C)c(OC)n1 , IC50 observed: 15.8 µM

compound COc1ccc(N(CCOC(=O)CN2CCN(C)CC2)S(=O)(=O)c2ccc3c(c2)c2ccccc2n3C)c(OC)n1 , IC50 observed: 5.98 µM

compound COc1ccc(N(CCN2CCN(C)CC2)S(=O)(=O)c2ccc3c(c2)c2ccccc2n3C)c(OC)n1 , IC50 observed: 15 µM

compound COc1ccc(N(CCNC(=O)CN)S(=O)(=O)c2ccc3c(c2)c2ccccc2n3C)c(OC)n1 , IC50 observed: 1.6 µM

compound COc1ccc(N(CCN)S(=O)(=O)c2ccc3c(c2)c2ccccc2n3C)c(OC)n1 , IC50 observed: 6.63 µM

compound COc1ccc(N(CCN2CCOCC2)S(=O)(=O)c2ccc3c(c2)c2ccccc2n3C)c(OC)n1 , IC50 observed: 4.65 µM

compound COc1ccc(N(CC(N)=O)S(=O)(=O)c2ccc3c(c2)c2ccccc2n3C)c(OC)n1 , IC50 observed: 4.28 µM

compound COc1ccc(N(C(=O)CCN2CCCCC2)S(=O)(=O)c2ccc3c(c2)c2ccccc2n3C)c(OC)n1 , IC50 observed: 1.16 µM

compound COc1ccc(N(C(=O)CCN2CCN(C)CC2)S(=O)(=O)c2ccc3c(c2)c2ccccc2n3C)c(OC)n1 , IC50 observed: 0.17 µM

compound COc1ccc(N(CCn2ccnc2)S(=O)(=O)c2ccc3c(c2)c2ccccc2n3C)c(OC)n1 , IC50 observed: 4.6 µM

compound COc1ccc(N(CCOP(=O)([O-])[O-])S(=O)(=O)c2ccc3c(c2)c2ccccc2n3C)c(OC)n1.[Na+].[Na+] , IC50 observed: 1.08 µM

compound COc1ccc(N(CCN2CCCCC2)S(=O)(=O)c2ccc3c(c2)c2ccccc2n3C)c(OC)n1 , IC50 observed: 5.82 µM

compound COc1ccc(N(CCCN(C)C)S(=O)(=O)c2ccc3c(c2)c2ccccc2n3C)c(OC)n1 , IC50 observed: 7.15 µM
